biological target: Recombinant human liver GK1 (GST-GK) (Homo sapiens, UniProt P35557); construct: made in house; host or cells: E. coli; test: Glucokinase in vitro assay (G6PDH-coupled, NADH generation, OD340); type: biochemical; conditions: 30° C., 5 mM D-glucose, 10% dimethylsulfoxide
Sequence (P35557 1-466 isoform P35557-2): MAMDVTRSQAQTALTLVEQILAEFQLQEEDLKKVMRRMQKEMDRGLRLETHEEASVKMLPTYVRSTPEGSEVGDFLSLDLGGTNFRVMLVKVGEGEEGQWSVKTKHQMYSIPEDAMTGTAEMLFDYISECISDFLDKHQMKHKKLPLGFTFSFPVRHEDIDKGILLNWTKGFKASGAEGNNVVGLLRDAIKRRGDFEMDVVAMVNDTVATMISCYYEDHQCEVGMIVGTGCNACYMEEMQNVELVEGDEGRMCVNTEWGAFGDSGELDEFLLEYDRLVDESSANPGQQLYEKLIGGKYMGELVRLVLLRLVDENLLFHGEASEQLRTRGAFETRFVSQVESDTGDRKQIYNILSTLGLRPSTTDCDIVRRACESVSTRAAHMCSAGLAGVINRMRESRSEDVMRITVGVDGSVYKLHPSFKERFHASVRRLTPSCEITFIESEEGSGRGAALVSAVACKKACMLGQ
Readout label: SC1.5 (concentration of activator that produced a 50% increase in the activity of GK) (µM)

| Compound | Experimental system | Observed value |
| --- | --- | --- |
| O=C(O)CCn1ccc(NC(=O)[C@H](CC2CCCC2)N2Cc3c(cccc3C(F)(F)F)C2=O)n1 [Example 20] | Recombinant human liver GK1 (GST-GK) (Homo sapiens, UniProt P35557) | 0.457 |
| CC(C)(C)OC(=O)Cn1ccc(NC(=O)[C@H](CC2CCCC2)N2Cc3c(cccc3C(F)(F)F)C2=O)n1 [Example 3] | Recombinant human liver GK1 (GST-GK) (Homo sapiens, UniProt P35557) | 0.244 |
| CC(C)C[C@@H](C(=O)Nc1cnc([C@H](O)CO)cn1)N1Cc2c(cccc2C(F)(F)F)C1=O [Example 24] | Recombinant human liver GK1 (GST-GK) (Homo sapiens, UniProt P35557) | 2.966 |
| COCCn1ccc(NC(=O)[C@H](CC2CCCCC2)N2Cc3c(F)cccc3C2=O)n1 [Example 18] | Recombinant human liver GK1 (GST-GK) (Homo sapiens, UniProt P35557) | 0.962 |
| O=C(Nc1ccn(CCCO)n1)[C@H](CC1CCCC1)N1Cc2ccccc2C1=O [Example 12] | Recombinant human liver GK1 (GST-GK) (Homo sapiens, UniProt P35557) | 1.857 |
| O=C(Nc1ccn(CCO)n1)[C@H](CC1CCCC1)N1Cc2c(cccc2C(F)(F)F)C1=O [Example 2] | Recombinant human liver GK1 (GST-GK) (Homo sapiens, UniProt P35557) | 0.186 |
| O=C(Nc1cnc(Br)cn1)[C@H](CC1CCCC1)N1Cc2c(cccc2C(F)(F)F)C1=O [Example 16] | Recombinant human liver GK1 (GST-GK) (Homo sapiens, UniProt P35557) | 0.062 |
| CC(C)OCCn1ccc(NC(=O)[C@H](CC2CCCC2)N2Cc3c(cccc3C(F)(F)F)C2=O)n1 [Example 17] | Recombinant human liver GK1 (GST-GK) (Homo sapiens, UniProt P35557) | 0.179 |
| COC(C)(C)Cn1ccc(NC(=O)[C@H](CC2CCCC2)N2Cc3ccccc3C2=O)n1 [Example 14] | Recombinant human liver GK1 (GST-GK) (Homo sapiens, UniProt P35557) | 1.242 |
